Reported TGI by item:
# Test system: HCT-15 colon
# protocol.summary: NCI tumour cell line growth inhibition, 48 h
Could you give me the number in µM? Just the number is fine.

Worked set:
C[C@@H]1[C@H]2[C@H](C=C3[C@@H]4CC[C@H]5Cc6nc7c(nc6C[C@]5(C)[C@H]4C[C@@H](O)[C@@]32C)C[C@@H]2CC[C@H]3C4=C[C@@H]5O[C@@]6(CC[C@](C)(CO)O6)[C@@H](C)[C@@]5(O)[C@@]4(C)[C@H](O)C[C@@H]3[C@@]2(C)C7)O[C@]12CCC(C)(C)O2 :: 8.14
CN(CCCCN1CCCC1)CCCCN(C)C(=O)Cc1ccc(Cl)c(Cl)c1 :: 50
COc1cc2c(cc1O)[C@H](C)C(c1ccccc1OC)O2 (stereo not given in full) :: 12.1
OC12CC3c4ccccc4NC3C3Oc4cccc5c4C31CCN(CC1CC1)C2C5 (stereo not given) :: 35.1
NC(=O)c1ccc2nc(-c3ccc(C4(N)CCC4)cc3)c(-c3ccccc3)n2n1 :: 33.1
CN(C)C(=S)/N=c1\ssc(=S)n1-c1ccccc1 :: 28.9
COc1cccc2c1nc1cccc(OC)c1[n+]2[O-] :: 12.7

We next turn to a different compound, shown below.
Just so you know, measured TGI for CCOc1ccccc1NC(=O)C(=O)C(C(=O)c1ccc2ccccc2c1)C1OC(=O)c2ccccc21 (stereo not given) came out at 33.6

Numbers sourced from PubChem BioAssay (NCI).
